- System Tested: IAPP fibrils (Homo sapiens, UniProt P10997)
- Construct: purchased Bachem Inc
- Sequence (P10997 34-70 limits assumed): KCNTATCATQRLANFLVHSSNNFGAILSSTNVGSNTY
- Method Summary: Thioflavin T fluorometry - disruption of type 2 diabetes IAPP fibrils
- Assay type: biochemical
- Settings: IAPP:test compound wt/wt ratio 1:0.001; 25 μM pre-fibrillized IAPP, 37° C., 3 days; read-out: % Inhibition IAPP (result ± S.D.)
Quick rule: inhibition of at least 10% means t, below that means f.

- Compound: "O=C(c1ccc(O)c(O)c1)C(O)c1ccc(O)c(O)c1 (stereo not drawn) [Compound 1, 3,4,3′,4′-tetrahydroxybenzoin]"
  Category Label: "f"
- Compound: "O=C(CCC(=O)Nc1ccc(O)c(O)c1)Nc1ccc(O)c(O)c1 [Compound 66, succinic acid bis(3,4-dihydroxyanilide)]"
  Category Label: "t"
- Compound: "O=C(N[C@@H]1CCCC[C@H]1NC(=O)c1ccc(O)c(O)c1)c1ccc(O)c(O)c1 (relative stereo)"
  Category Label: "f"
- Compound: "O=C(Nc1ccc(O)c(O)c1)c1ccc(O)c(O)c1"
  Category Label: "t"
- Compound: "O=C(C=Cc1ccc(O)c(O)c1)NCc1ccc(O)c(O)c1"
  Category Label: "f"
- Compound: "O=C(NCc1ccc(O)c(O)c1)C(=Cc1ccc(O)c(O)c1)NC(=O)c1ccc(O)c(O)c1"
  Category Label: "f"
- Compound: "Cc1nc(-c2ccc(O)c(O)c2)cc(-c2ccc(O)c(O)c2)c1C#N"
  Category Label: "t"
- Compound: "Oc1ccc(CN(Cc2ccc(O)c(O)c2)Cc2ccc(O)c(O)c2)cc1O [Compound 75, tris(3,4-dihydroxybenzyl)amine]"
  Category Label: "f"
- Compound: "Oc1ccc(CCc2ccc(O)c(O)c2)cc1O [Compound 4, 1,2-bis(3,4-dihydroxyphenyl)ethane]"
  Category Label: "t"
- Compound: "O=C(Nc1ccc(O)c(O)c1)Nc1ccc(O)c(O)c1 [Compound 76, 1,3-bis(3,4-dihydroxyphenyl)urea]"
  Category Label: "f"
- Compound: "O=C(NCCc1ccc(O)c(O)c1)Nc1ccc(O)c(O)c1"
  Category Label: "t"
- Compound: "O=C(Nc1ccc(O)c(O)c1)C(=O)Nc1ccc(O)c(O)c1 [Compound 63, oxalic acid bis(3,4-dihydroxyanilide)]"
  Category Label: "t"
- Compound: "O=C(NCc1ccc(O)c(O)c1)c1ccc(O)c(O)c1"
  Category Label: "t"
- Compound: "Oc1ccc(CN[C@@H]2CCCC[C@H]2NCc2ccc(O)c(O)c2)cc1O (relative stereo)"
  Category Label: "t"
- Compound: "O=C(c1ccc(O)c(O)c1)N1CCN(C(=O)c2ccc(O)c(O)c2)CC1 [Compound 23, 1,4-bis(3,4-dihydroxybenzoyl)piperazine]"
  Category Label: "t"
- Compound: "O=C(CCC(=O)NCc1ccc(O)c(O)c1)NCc1ccc(O)c(O)c1"
  Category Label: "t"
- Compound: "O=C(CCc1ccc(O)c(O)c1)NCc1ccc(O)c(O)c1"
  Category Label: "f"
- Compound: "O=C(CCc1ccc(O)c(O)c1)Nc1ccc(O)c(O)c1"
  Category Label: "f"
